TARGET_OF_ASSAY: A2A receptor (Homo sapiens)
Sequence (P29274 whole entry): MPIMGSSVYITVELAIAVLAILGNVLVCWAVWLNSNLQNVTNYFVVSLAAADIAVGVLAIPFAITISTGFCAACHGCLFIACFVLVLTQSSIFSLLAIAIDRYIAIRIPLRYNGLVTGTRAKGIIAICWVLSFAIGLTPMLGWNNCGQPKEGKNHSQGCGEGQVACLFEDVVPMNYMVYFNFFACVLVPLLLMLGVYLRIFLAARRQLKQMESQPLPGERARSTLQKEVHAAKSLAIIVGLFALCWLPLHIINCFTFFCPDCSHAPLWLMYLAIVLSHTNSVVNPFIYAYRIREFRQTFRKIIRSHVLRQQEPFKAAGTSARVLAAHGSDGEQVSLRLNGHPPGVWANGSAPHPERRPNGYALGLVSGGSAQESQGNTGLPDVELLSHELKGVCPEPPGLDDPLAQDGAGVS
TEST_NAME: A2A receptor antagonist functional assay (cAMP, A2A cell line)
Assay type: cell-based
TEST_READOUT: IC50
Write the figure, then the unit, nothing else.

Please review the following examples before continuing.
Prompt: Name the recorded IC50 of the item Cc1ccc(-c2nc(N)nc3c(Cc4cccc(CO[C@H]5CCOC5)[n+]4[O-])cnn23)o1 [Compound 17] in your answer.
Completion: 90 nM

Prompt: Name the recorded IC50 of the item Cc1ccc(-c2nc(N)nc3c(Cc4ccccc4N)cnn23)o1 [Compound 27] in your answer.
Completion: 1.9 nM

Prompt: Name the recorded IC50 of the item Cc1ccc(-c2nc(N)nc3c(Cc4c(F)cc(F)cc4F)cnn23)o1 [Compound 12] in your answer.
Completion: 1.5 nM

Prompt: Name the recorded IC50 of the item Cc1ccc(-c2nc(N)nc3c(CC4CCCC4)cnn23)o1 [Compound 14] in your answer.
Completion: 10.4 nM

Prompt: Name the recorded IC50 of the item COCc1cccc(Cc2cnn3c(-n4ccc(C)n4)nc(N)nc23)n1 [Compound 4] in your answer.
Completion: 17 nM

Further cases:
Prompt: Name the recorded IC50 of the item COCCNc1cccc(Cc2cnn3c(-c4ccc(C)o4)nc(N)nc23)n1 [Compound 21] in your answer.
Completion: 4.7 nM

Prompt: Name the recorded IC50 of the item Cc1ccc(-c2nc(N)nc3c(Cc4cccc(COC5CC5)n4)cnn23)o1 [Compound 9] in your answer.
Completion: 3.6 nM

Prompt: Name the recorded IC50 of the item Cc1ccc(-c2nc(N)nc3c(Cc4ccc(N)cc4)cnn23)o1 [Compound 26] in your answer.
Completion: 17.4 nM

Prompt: Name the recorded IC50 of the item Cc1ccc(-c2nc(N)nc3c(Cc4ccc(F)cc4)cnn23)o1 [Compound 1] in your answer.
Completion: 3.3 nM

Prompt: Name the recorded IC50 of the item Cc1ccc(-c2nc(N)nc3c(Cc4cccc(N)n4)cnn23)o1 [Compound 22] in your answer.
Completion: 5.8 nM

Prompt: Name the recorded IC50 of the item COCc1cccc(Cc2cnn3c(-c4cccs4)nc(N)nc23)n1 [Compound 3] in your answer.
Completion: 96 nM

Prompt: Name the recorded IC50 of the item Cc1ccc(-c2nc(N)nc3c(Cc4cccc(NCc5ccccc5)n4)cnn23)o1 [Compound 20] in your answer.
Completion: 5.5 nM

Prompt: Name the recorded IC50 of the item Cc1ccc(-c2nc(N)nc3c(Cc4cccc(N)c4)c(C)nn23)o1 [Compound 45] in your answer.
Completion: 1.9 nM

Prompt: Name the recorded IC50 of the item Cc1ccc(-c2nc(N)nc3c(CC4CCCCC4)cnn23)o1 [Compound 13] in your answer.
Completion: 5.7 nM

Prompt: Name the recorded IC50 of the item COCCNCc1cccc(Cc2cnn3c(-c4ccc(C)o4)nc(N)nc23)n1 [Compound 8] in your answer.
Completion: 31 nM

Prompt: Name the recorded IC50 of the item Cn1ccc(-c2nc(N)nc3c(Cc4cccc(N)c4)cnn23)n1 [Compound 48] in your answer.
Completion: 29.1 nM

Prompt: Name the recorded IC50 of the item Cc1ccc(-c2nc(N)nc3c(Cc4ccc(F)cc4F)cnn23)o1 [Compound 10] in your answer.
Completion: 5 nM

Prompt: Name the recorded IC50 of the item Cc1ccc(N)c(Cc2cnn3c(-c4ccc(C)o4)nc(N)nc23)c1 [Compound 44] in your answer.
Completion: 6.2 nM
